Where do the numbers come from? From PubChem BioAssay (NCI).

- Test system: CCRF-CEM leukemia
- Protocol Text: NCI-60 one-dose screen, 48 h (100 = growth as untreated, 0 = no growth, -100 = all killed)
- Condition Summary: 10 µM unless noted
About 83,000 compounds went through this panel and 20% of them were active in at least one assay; those are over-represented in the sample as a whole.
# key: entry, value: growth
Field format: number, assumed %, no unit text.

CCSc1ccc([C@@H]2[C@@H](O)C(=O)N2c2cc(OC)c(OC)c(OC)c2)cc1 = 11.9
COc1ccc([C@@H]2[C@@H](Cl)C(=O)N2c2cc(OC)c(OC)c(OC)c2)cc1C = 9.56
CN(C)c1ccc(Nc2c3ccccc3nc3ccccc23)cc1 = 19.9
CCOC(=O)Nc1ccc2nc(-c3cscn3)[nH]c2c1 = 70.8
OC(c1cc2c(Cl)cc(Cl)cc2c2cc(C(F)(F)F)ccc12)C1CCCCN1 (stereo not given) = -54.7

With CCRF-CEM leukemia as the test system, CC(=O)c1cccc(Nc2ncnc3ccc(NC(=O)c4ccco4)cc23)c1 showed growth of 96.5

====

- Tested on: A498 renal
- Protocol Text: NCI-60 one-dose screen, 48 h
- Condition Summary: 10 µM unless noted
The panel holds about 83,000 compounds, 20% with a hit somewhere; the sample as a whole holds those more often. Active and inactive are the calls of the source. How the source made its calls: active means growth percent below 10; inactive means the rest.
The categories you may choose from are label 1 (active), label 0 (inactive)

Oc1[nH]c2ccc(Cl)cc2c1/C=c1/ccc2c(c1)N=C(c1ccc(F)cc1)N=2 = label 0

Test call, this compound: COc1cc2nccc(Oc3ccc(NC(=O)C4(C(=O)Nc5ccc(F)cc5)CC4)cc3)c2cc1O
label 0

Test call, this compound: CCCCCCCCCCCCCCCCOc1ccc(S(=O)(=O)N(C)C)cc1[N+](=O)[O-]
label 0

Test call, this compound: O=C(OCc1ccc2c(Br)cc(Br)c(O)c2n1)c1cc2ccccc2[nH]1
label 1

====

- System: MALME-3M melanoma
- Protocol Text: NCI-60 one-dose screen, 48 h (100 = growth as untreated, 0 = no growth, -100 = all killed)
- Condition Summary: 10 µM unless noted
This is part of a sample that, as a whole, favours compounds with a hit. Of some 83,000 tested, about 20% had one in any assay.
Classify by measured growth: MET if it is equal to or exceeds 70%, NOT MET if it is smaller.

C=C(C)[C@@H]1CC[C@]2(C)[C@H](CC=C3[C@@H]4C[C@](C)(C(=O)N5CCN(C)CC5)CC[C@]4(C)CC[C@]32C)[C@@]1(C)CCC#N = MET
O=C(/C=C/c1cc([N+](=O)[O-])ccc1Cl)c1ccccc1 = MET
Cc1ccc(C2CC(c3cccs3)=NN2c2ccc(S(N)(=O)=O)cc2)s1 (stereo not given) = MET

Pending compound:
Is growth at least 70%? Consider COc1ccc2[nH]cc(/C=C3\C(=O)Nc4ccccc43)c2c1
NOT MET

====

- System: HOP-92 NSCLC
- Protocol Text: NCI-60 one-dose screen, 48 h (100 = growth as untreated, 0 = no growth, -100 = all killed)
- Condition Summary: 10 µM unless noted
Compounds without any hit were thinned out: in the full panel of roughly 83,000, 20% have a hit.
Cut-off 40% on growth: below means MET, at or above means NOT MET.

Please review the following examples before continuing.
CC1=C(O)C(=O)C(c2c(C)cc(C)c(Br)c2C)=C(O)C1=O = NOT MET
CC1=NN(c2cccc(S(N)(=O)=O)c2)C(=O)C1 = MET
COc1ccc2cc(-c3nc(C)c(C(C)=O)c(-c4ccc(C)cc4)n3)ccc2c1 = NOT MET
CC(=O)N(C)c1ccc(Nc2cc(C)[nH]c3ccc4ncnc4c23)cc1 = MET
COc1c(C(=O)/C=C/c2ccc(C)o2)c(O)cc2occc12 = NOT MET

Is 40% strictly greater than the molecule's reported growth? molecule: CCCCn1c(C)nc2ccc(Nc3nc(Cl)nc4nc[nH]c34)cc21
MET

Is 40% strictly greater than the molecule's reported growth? molecule: Nc1ccc(C(OC(=O)c2cc3ccccc3c(Cc3c(O)c(C(=O)OC(c4ccc(N)cc4)(c4ccc(N)cc4)c4ccc(N)cc4)cc4ccccc34)c2O)(c2ccc(N)cc2)c2ccc(N)cc2)cc1
MET

Is 40% strictly greater than the molecule's reported growth? molecule: O=C(CSc1ccc(Cl)cc1)Nc1ccc(-c2nc3ccccc3s2)c(Cl)c1
MET

Is 40% strictly greater than the molecule's reported growth? molecule: Nc1c(C(=O)Nc2cccc(Cl)c2)sc2ncc(Br)cc12
NOT MET

Is 40% strictly greater than the molecule's reported growth? molecule: Nc1cc2nc3ccccc3oc-2cc1=O
NOT MET

Is 40% strictly greater than the molecule's reported growth? molecule: N#Cc1c(N)c(C(=O)c2ccc3c(c2)OCCO3)n2c1CCCC2
NOT MET

Is 40% strictly greater than the molecule's reported growth? molecule: C=CCn1c(SCC(=O)Nc2ccc(C(=O)/C=C/c3ccccc3)cc2)nnc1-c1ccc(OC)c(OC)c1
NOT MET

Is 40% strictly greater than the molecule's reported growth? molecule: COc1ccc(/C(=C\c2ccc3c(c2)OCO3)C(=O)Nc2nc3ccccc3s2)cc1
NOT MET

Is 40% strictly greater than the molecule's reported growth? molecule: O=C1C(Cl)=C(N/N=c2/[nH][nH]/c(=N/NC3=C(Cl)C(=O)c4ccccc4C3=O)c3ccccc23)C(=O)c2ccccc21
NOT MET

Is 40% strictly greater than the molecule's reported growth? molecule: COc1ccc2c(c1)CCCC21C(=O)Nc2ccccc21 (stereo not given)
NOT MET
